measurementTarget: T1, HvRPA3 full length (Haloferax volcanii DS2 (wild-type), UniProt D4GZS1 1-311)
T1 sequence: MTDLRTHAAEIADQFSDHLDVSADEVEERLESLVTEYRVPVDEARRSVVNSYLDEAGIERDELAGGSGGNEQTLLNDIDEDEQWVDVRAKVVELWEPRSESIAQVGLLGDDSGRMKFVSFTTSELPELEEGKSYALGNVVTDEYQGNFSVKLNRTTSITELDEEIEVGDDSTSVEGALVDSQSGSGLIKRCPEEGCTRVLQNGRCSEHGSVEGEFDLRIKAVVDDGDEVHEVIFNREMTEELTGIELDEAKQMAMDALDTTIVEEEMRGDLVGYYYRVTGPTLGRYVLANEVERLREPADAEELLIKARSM
experiment: fluorescence anisotropy; 3 M KCl; Hill 1.2 ± 0.1; FA: 50 mM HEPES pH 7.0, 10% glycerol, 0.03% BSA, 20 nM Cy5-oligo, 0.2, 1 or 3 M KCl, room temperature 10 min; SEC: 50 mM HEPES pH 7.0, 0.2, 1 or 3 M KCl; EMSA:
studyConditions: protein: recombinant; tags: N-terminal 6xHis; label: 5' Cy5; single strand
quantityName: Kd (nM)
Give the quantity in nM, number only.

Look at this binder and give its reported Kd. GCGTGTGTGGTGGTGTGC (ssDNA) [Cy5-18mer ssDNA (FA)] 24.1
